So I've got a bunch of compounds here, and I need their EC50 values.
- System Tested: Luciferin 4-monooxygenase (Photinus pyralis, UniProt P08659)
- Sequence (P08659 whole entry): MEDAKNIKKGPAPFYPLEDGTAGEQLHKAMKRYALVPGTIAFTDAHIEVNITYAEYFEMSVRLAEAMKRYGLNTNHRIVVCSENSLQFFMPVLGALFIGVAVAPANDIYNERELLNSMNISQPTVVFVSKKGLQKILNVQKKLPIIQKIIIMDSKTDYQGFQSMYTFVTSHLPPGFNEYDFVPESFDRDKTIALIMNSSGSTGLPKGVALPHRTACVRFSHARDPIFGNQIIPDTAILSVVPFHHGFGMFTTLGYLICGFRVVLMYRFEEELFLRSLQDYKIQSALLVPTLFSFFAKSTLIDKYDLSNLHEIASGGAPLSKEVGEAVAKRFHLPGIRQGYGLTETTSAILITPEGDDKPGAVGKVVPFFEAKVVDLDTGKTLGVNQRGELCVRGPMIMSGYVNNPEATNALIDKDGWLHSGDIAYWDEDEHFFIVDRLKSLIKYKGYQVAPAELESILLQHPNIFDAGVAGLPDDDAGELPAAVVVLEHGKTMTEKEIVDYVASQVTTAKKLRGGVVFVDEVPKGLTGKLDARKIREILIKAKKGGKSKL
- Protocol Notes: firefly luciferase enzyme inhibitors, dose response, biochemical, luminescence (AID 1891)
Calls of active or inactive are those of the source. Rule as the data show it: actives have a measured EC50 and inactives only a lower limit.

Write down the reported EC50 of CCCc1cc(C(=O)NC2CCCC2)no1 , test system: Luciferin 4-monooxygenase (Photinus pyralis, UniProt P08659).
> 112 µM (not active)

What measured EC50 is associated with Cc1ccc(S(=O)(=O)NCCC(=O)OCC(=O)NC(=O)c2cccn2C)cc1 on Luciferin 4-monooxygenase (Photinus pyralis, UniProt P08659)?
> 112 µM (not active)

// fetch Luciferin 4-monooxygenase (Photinus pyralis, UniProt P08659) EC50 for Cc1cccc(-n2cnc3c(sc4nc(N5CCOCC5)c5c(c43)CCCC5)c2=O)c1
> 112 µM (not active)

Which measured EC50 belongs to Cc1nc2sc(-c3ccccc3)cc2c(=O)n1N , tested on Luciferin 4-monooxygenase (Photinus pyralis, UniProt P08659)?
1.01 µM (active)

# get_value(readout= EC50, system= Luciferin 4-monooxygenase (Photinus pyralis, UniProt P08659)) for Cc1cccc(CCNC(=O)c2cc(S(=O)(=O)N3CCOCC3)cn2C)c1
> 112 µM (not active)

Query the reported EC50 for Luciferin 4-monooxygenase (Photinus pyralis, UniProt P08659); item: COc1ccc(C(=O)O/N=C(/C)c2cccs2)cc1
0.517 µM (active)

Lookup: EC50 / Luciferin 4-monooxygenase (Photinus pyralis, UniProt P08659) / CC1CCCCN1Cc1nc2c(c(=O)n(C)c(=O)n2C)n1CCCc1ccccc1 (stereo not given)
> 112 µM (not active)

Give EC50 (Luciferin 4-monooxygenase (Photinus pyralis, UniProt P08659)) of the following compound: Cc1ccccc1C1CC(c2ccccc2OC(F)F)Nc2ncnn21 (stereo not given)
> 112 µM (not active)

Could you share what EC50 was measured for COc1ccc(C(=O)NC(=S)NC(C)(C)C)cc1Br , tested on Luciferin 4-monooxygenase (Photinus pyralis, UniProt P08659)?
> 112 µM (not active)

Recall the recorded EC50 for Cc1ccccc1CCNC(=O)C1CCN(S(=O)(=O)c2ccc(-n3cnnn3)cc2)CC1 with Luciferin 4-monooxygenase (Photinus pyralis, UniProt P08659) and state it.
> 112 µM (not active)

Reported EC50 for Luciferin 4-monooxygenase (Photinus pyralis, UniProt P08659), given COc1ccc(CC(=O)N2CCN(c3ccc(C4=NNC(=O)CC4C)cc3)CC2)cc1 (stereo not given) ?
> 112 µM (not active)

Give EC50 (Luciferin 4-monooxygenase (Photinus pyralis, UniProt P08659)) of the following compound: Cc1ccc(C2CC(c3ccccc3OC(F)F)Nc3ncnn32)cc1 (stereo not given)
> 112 µM (not active)

Notebook entry, Luciferin 4-monooxygenase (Photinus pyralis, UniProt P08659) assay: EC50 of CCOC(=O)Nc1ccc2c(COC(=O)CNS(=O)(=O)c3cccc(Br)c3)cc(=O)oc2c1 = ?
> 112 µM (not active)

Report EC50 for CCCc1cc(-c2nc(N)ncc2-c2ccc3c(c2)OCCCO3)c(O)cc1OC tested on Luciferin 4-monooxygenase (Photinus pyralis, UniProt P08659).
> 112 µM (not active)

Lab note: need EC50 for O=C(/C=C/Nc1ccc(Br)cc1F)c1ccccc1 on Luciferin 4-monooxygenase (Photinus pyralis, UniProt P08659), anyone have it?
0.542 µM (active)
